I'd appreciate it if you could supply Hemolysis (HC10) values for the items below.
# System: human red blood cells
# ASSAY EXPLANATION: Hemolytic assay
# Assay type: cell-based
# CONDITION CONTEXT: concentration at 10% hemolytic activity on human red blood cells; mean (n = 2); top dose tested 32 μg/mL
# Protocol: Hemolytic assays were conducted using the protocols previously reported.

Ask: Recorded Hemolysis (HC10) of CC(C)[C@@H](CC[C@@H](C)[C@H]1CC[C@H]2[C@@H]3[C@H](O)C[C@H]4C[C@@H](NCCCNCCCCN)CC[C@]4(C)[C@H]3CC[C@]12C)OS(=O)(=O)O [Compound 1, Squalamine, reference compound] , please.
Result: >36 µM

Ask: Recorded Hemolysis (HC10) of C[C@H](CCC(=O)NCCCNCCCCNCCCNC(=O)CC[C@@H](C)[C@H]1CC[C@H]2[C@@H]3C[C@H](O)[C@@H]4C[C@H](O)CC[C@]4(C)[C@H]3CC[C@]12C)[C@H]1CC[C@H]2[C@@H]3C[C@H](O)[C@@H]4C[C@H](O)CC[C@]4(C)[C@H]3CC[C@]12C.O=C(O)C(F)(F)F.O=C(O)C(F)(F)F [Compound 7a] , please.
Result: >27 µM

----------
I'd appreciate it if you could supply MIC values for the items below.
# System: Candida albicans ATCC 90028
# ASSAY EXPLANATION: Antimicrobial MIC assay (CO-ADD) against C. albicans
# Type: cell-based
# CONDITION CONTEXT: Candida albicans, ATCC90028, read-out: MIC C.a., Candida albicans ATCC 90028; mean (n = 2)
# Text: Antimicrobial evaluation against S. aureus (MRSA) (ATCC 43300), E. coli (ATCC 25922), K. pneumoniae (ATCC 700603), A. baumannii (ATCC 19606), C. albicans (ATCC 90028), and C. neoformans (ATCC 208821) was undertaken at the Community for Open Antimicrobial Drug Discovery at The University of Queensland (Australia) according to their standard protocols as reported previously.
API: value field is a number in µM; no unit string.

Ask: Recorded MIC of C[C@H](CCC(=O)NCCCNCCCCCCCCNCCCNC(=O)CC[C@@H](C)[C@H]1CC[C@H]2[C@@H]3C[C@H](O)[C@@H]4C[C@H](O)CC[C@]4(C)[C@H]3CC[C@]12C)[C@H]1CC[C@H]2[C@@H]3C[C@H](O)[C@@H]4C[C@H](O)CC[C@]4(C)[C@H]3CC[C@]12C.O=C(O)C(F)(F)F.O=C(O)C(F)(F)F [Compound 7d] , please.
Result: 13

Ask: Recorded MIC of C[C@H](CCC(=O)NCCCNCCCCCCCCCCNCCCNC(=O)CC[C@@H](C)[C@H]1CC[C@H]2[C@@H]3[C@@H](O)C[C@@H]4C[C@H](O)CC[C@]4(C)[C@H]3CC[C@]12C)[C@H]1CC[C@H]2[C@@H]3[C@@H](O)C[C@@H]4C[C@H](O)CC[C@]4(C)[C@H]3CC[C@]12C.O=C(O)C(F)(F)F.O=C(O)C(F)(F)F [Compound 8e] , please.
Result: 3.2

----------
# System: Escherichia coli ATCC 25922
# ASSAY EXPLANATION: Antimicrobial MIC assay (CO-ADD) against E. coli
# Assay type: cell-based
# CONDITION CONTEXT: Escherichia coli, ATCC25922, read-out: MIC E.c.
PROPERTY MEASURED: MIC

Ask: Recorded MIC of C[C@H](CCC(=O)NCCCNCCCCCCNCCCNC(=O)CC[C@@H](C)[C@H]1CC[C@H]2[C@@H]3[C@@H](O)C[C@@H]4C[C@H](O)CC[C@]4(C)[C@H]3CC[C@]12C)[C@H]1CC[C@H]2[C@@H]3[C@@H](O)C[C@@H]4C[C@H](O)CC[C@]4(C)[C@H]3CC[C@]12C.O=C(O)C(F)(F)F.O=C(O)C(F)(F)F [Compound 8b] , please.
Result: > 26 µM

Ask: Recorded MIC of C[C@H](CCC(=O)NCCCNCCCCNCCCNC(=O)CC[C@@H](C)[C@H]1CC[C@H]2[C@@H]3[C@H](O)C[C@@H]4C[C@H](O)CC[C@]4(C)[C@H]3CC[C@]12C)[C@H]1CC[C@H]2[C@@H]3[C@H](O)C[C@@H]4C[C@H](O)CC[C@]4(C)[C@H]3CC[C@]12C.O=C(O)C(F)(F)F.O=C(O)C(F)(F)F [Compound 9a] , please.
Result: 6.8 µM

Ask: Recorded MIC of C[C@H](CCC(=O)NCCCNCCCCCCCCCCNCCCNC(=O)CC[C@@H](C)[C@H]1CC[C@H]2[C@@H]3C[C@H](O)[C@@H]4C[C@H](O)CC[C@]4(C)[C@H]3CC[C@]12C)[C@H]1CC[C@H]2[C@@H]3C[C@H](O)[C@@H]4C[C@H](O)CC[C@]4(C)[C@H]3CC[C@]12C.O=C(O)C(F)(F)F.O=C(O)C(F)(F)F [Compound 7e] , please.
Result: > 25 µM

Ask: Recorded MIC of C[C@H](CCC(=O)NCCCNCCCCNCCCNC(=O)CC[C@@H](C)[C@H]1CC[C@H]2[C@@H]3C[C@H](O)[C@@H]4C[C@H](O)CC[C@]4(C)[C@H]3CC[C@]12C)[C@H]1CC[C@H]2[C@@H]3C[C@H](O)[C@@H]4C[C@H](O)CC[C@]4(C)[C@H]3CC[C@]12C.O=C(O)C(F)(F)F.O=C(O)C(F)(F)F [Compound 7a] , please.
Result: > 27 µM

Ask: Recorded MIC of C[C@H](CCC(=O)NCCCNCCCCCCCNCCCNC(=O)CC[C@@H](C)[C@H]1CC[C@H]2[C@@H]3[C@@H](O)C[C@@H]4C[C@H](O)CC[C@]4(C)[C@H]3CC[C@]12C)[C@H]1CC[C@H]2[C@@H]3[C@@H](O)C[C@@H]4C[C@H](O)CC[C@]4(C)[C@H]3CC[C@]12C.O=C(O)C(F)(F)F.O=C(O)C(F)(F)F [Compound 8c] , please.
Result: > 26 µM

Ask: Recorded MIC of C[C@H](CCC(=O)NCCCNCCCCCCNCCCNC(=O)CC[C@@H](C)[C@H]1CC[C@H]2[C@@H]3C[C@H](O)[C@@H]4C[C@H](O)CC[C@]4(C)[C@H]3CC[C@]12C)[C@H]1CC[C@H]2[C@@H]3C[C@H](O)[C@@H]4C[C@H](O)CC[C@]4(C)[C@H]3CC[C@]12C.O=C(O)C(F)(F)F.O=C(O)C(F)(F)F [Compound 7b] , please.
Result: > 26 µM

----------
I'd appreciate it if you could supply Hemolysis (HC10) values for the items below.
# Tested on: human red blood cells
# ASSAY EXPLANATION: Hemolytic assay
# Assay type: cell-based
# CONDITION CONTEXT: concentration at 10% hemolytic activity on human red blood cells; mean (n = 2); top dose tested 32 μg/mL
API: value field is a number in µM; no unit string.

Ask: Provide value of Hemolysis (HC10) for this record tested with human red blood cells: `C[C@H](CCC(=O)NCCCNCCCCCCCNCCCNC(=O)CC[C@@H](C)[C@H]1CC[C@H]2[C@@H]3[C@@H](O)C[C@@H]4C[C@H](O)CC[C@]4(C)[C@H]3CC[C@]12C)[C@H]1CC[C@H]2[C@@H]3[C@@H](O)C[C@@H]4C[C@H](O)CC[C@]4(C)[C@H]3CC[C@]12C.O=C(O)C(F)(F)F.O=C(O)C(F)(F)F`
Result: 11

Ask: Provide value of Hemolysis (HC10) for this record tested with human red blood cells: `C[C@H](CCC(=O)NCCCNCCCCCCCCNCCCNC(=O)CC[C@@H](C)[C@H]1CC[C@H]2[C@@H]3[C@@H](O)C[C@@H]4C[C@H](O)CC[C@]4(C)[C@H]3CC[C@]12C)[C@H]1CC[C@H]2[C@@H]3[C@@H](O)C[C@@H]4C[C@H](O)CC[C@]4(C)[C@H]3CC[C@]12C.O=C(O)C(F)(F)F.O=C(O)C(F)(F)F`
Result: 5.6

----------
I'd appreciate it if you could supply pIC50 values for the items below.
# ASSAY EXPLANATION: Cytotoxicity assay on HEK293
# Assay type: cell-based, human
# CONDITION CONTEXT: human, HEK293 human embryonic kidney cells; concentration at 50% cytotoxicity on HEK293; mean (n = 2); top dose tested 32 μg/mL
pIC50: −log10 of the molar value.

Ask: Recorded pIC50 of `C[C@H](CCC(=O)NCCCNCCCCCCNCCCNC(=O)CC[C@@H](C)[C@H]1CC[C@H]2[C@@H]3C[C@H](O)[C@@H]4C[C@H](O)CC[C@]4(C)[C@H]3CC[C@]12C)[C@H]1CC[C@H]2[C@@H]3C[C@H](O)[C@@H]4C[C@H](O)CC[C@]4(C)[C@H]3CC[C@]12C.O=C(O)C(F)(F)F.O=C(O)C(F)(F)F` , please.
Result: < 4.59

Ask: Recorded pIC50 of `C[C@H](CCC(=O)NCCCNCCCCCCCCCCNCCCNC(=O)CC[C@@H](C)[C@H]1CC[C@H]2[C@@H]3[C@@H](O)C[C@@H]4C[C@H](O)CC[C@]4(C)[C@H]3CC[C@]12C)[C@H]1CC[C@H]2[C@@H]3[C@@H](O)C[C@@H]4C[C@H](O)CC[C@]4(C)[C@H]3CC[C@]12C.O=C(O)C(F)(F)F.O=C(O)C(F)(F)F` , please.
Result: < 4.60

Ask: Recorded pIC50 of `C[C@H](CCC(=O)NCCCNCCCCCCCNCCCNC(=O)CC[C@@H](C)[C@H]1CC[C@H]2[C@@H]3[C@@H](O)C[C@@H]4C[C@H](O)CC[C@]4(C)[C@H]3CC[C@]12C)[C@H]1CC[C@H]2[C@@H]3[C@@H](O)C[C@@H]4C[C@H](O)CC[C@]4(C)[C@H]3CC[C@]12C.O=C(O)C(F)(F)F.O=C(O)C(F)(F)F` , please.
Result: < 4.59

Ask: Recorded pIC50 of `C[C@H](CCC(=O)NCCCNCCCCCCCCCCNCCCNC(=O)CC[C@@H](C)[C@H]1CC[C@H]2[C@@H]3C[C@H](O)[C@@H]4C[C@H](O)CC[C@]4(C)[C@H]3CC[C@]12C)[C@H]1CC[C@H]2[C@@H]3C[C@H](O)[C@@H]4C[C@H](O)CC[C@]4(C)[C@H]3CC[C@]12C.O=C(O)C(F)(F)F.O=C(O)C(F)(F)F` , please.
Result: < 4.60
